Molecular target: N-terminally FLAG-tagged PARP2 (amino acids 1-583) (Homo sapiens)
Construct: N-terminally FLAG-tagged PARP2 (amino acids 1-583)
Test: PARP2 probe displacement HTRF assay
Assay type: binding
Settings: binned Kd, PARP2 probe displacement HTRF
pKd: −log10 of the molar value.
This section presents compounds with their documented pKd values.

>  <Compound>
N#Cc1ccc(N2CCC(N3CCC(c4nc5ccccc5c(=O)[nH]4)C3)CC2)cc1 (single isomer, unassigned) [Compound 34b]

>  <pKd>
5.00 to 6.00

$$$$
>  <Compound>
CNC(=O)c1ccc(N2CCC(N3CCCC(c4nc5ccccc5c(=O)[nH]4)C3)CC2)cc1 (single isomer, unassigned) [Compound 82b]

>  <pKd>
< 5.00

$$$$
>  <Compound>
CNC(=O)c1ccc(N2CCC(N3CCC(c4cc5ccc(F)cc5c(=O)[nH]4)C3)CC2)nn1 (single isomer, unassigned) [Compound 197a]

>  <pKd>
6.00 to 7.00

$$$$
>  <Compound>
CCc1ccc(C2CCCN(C3CCN(c4ccc(C(=O)NC)nc4)CC3)C2)[nH]c1=O (single isomer, unassigned) [Compound 53b]

>  <pKd>
< 5.00

$$$$
>  <Compound>
CCc1nc(C(=O)NC)ccc1N1CCC(N2CCC(c3ccc(CC)c(=O)[nH]3)C2)CC1 (racemic)

>  <pKd>
< 5.00

$$$$

Switching to the query record.
// query Any idea what its pKd is? The compound is CNC(=O)c1ccc(N2CCC(N3CCC(c4cc5ccc(Cl)cc5c(=O)[nH]4)C3)CC2)cn1 (single isomer, unassigned) [Compound 129b]
// result 7.00 to 8.00

###

Molecular target: full length N-terminally FLAG-tagged PARP1 (Homo sapiens)
Assay: PARP1 probe displacement HTRF assay
Conditions: PARP1 HTRF, binned Kd, PARP1 probe displacement HTRF
pKd: −log10 of the molar value.
Listed next: entries and their corresponding pKd.

// query Requested read-out pKd, target or system full length N-terminally FLAG-tagged PARP1 (Homo sapiens), entry CNC(=O)c1ccc(N2CCC(N3CCC(c4cc5[nH]nc(C(F)(F)F)c5c(=O)[nH]4)C3)CC2)cn1 (single isomer, unassigned) [Compound 194a]
// result 7.00 to 8.00

// query Please give the result for CNC(=O)c1ccc(OCCN2CCCC(Cc3nc4ccccc4c(=O)[nH]3)C2)cn1 (single isomer, unassigned) [Compound 14b] too.
// result 7.00 to 8.00

// query How about this molecule: CCc1ccc(C2CCCN(C3CCN(c4ccc(C(=O)NC)nc4)CC3)C2)[nH]c1=O (single isomer, unassigned) [Compound 53b]
// result 6.00 to 7.00

// query Query CNC(=O)c1ccc(N2CCC(N3CCC(c4nc5c(Cl)cccc5c(=O)[nH]4)C3)CC2)cn1 (single isomer, unassigned) [Compound 52b] next
// result > 8.00

// query Queued: CNC(=O)c1ccc(N2CCC(N3CCC(c4cc5ccc(F)cc5c(=O)[nH]4)C3)CC2)cn1 (single isomer, unassigned) [Compound 154a]
// result > 8.00

// query Next molecule up: CNC(=O)c1ccc(N2CCC(CN3CC4(c5nc6ccccc6c(=O)[nH]5)CC3C4)CC2)cn1 [Compound 193]
// result 7.00 to 8.00

###

Each record here notes measured Kd.
Biological target: N-terminally FLAG-tagged PARP2 (amino acids 1-583) (Homo sapiens, UniProt Q9UGN5)
Construct: N-terminally FLAG-tagged PARP2 (amino acids 1-583)
Sequence (Q9UGN5 whole entry, the tested form may be a part): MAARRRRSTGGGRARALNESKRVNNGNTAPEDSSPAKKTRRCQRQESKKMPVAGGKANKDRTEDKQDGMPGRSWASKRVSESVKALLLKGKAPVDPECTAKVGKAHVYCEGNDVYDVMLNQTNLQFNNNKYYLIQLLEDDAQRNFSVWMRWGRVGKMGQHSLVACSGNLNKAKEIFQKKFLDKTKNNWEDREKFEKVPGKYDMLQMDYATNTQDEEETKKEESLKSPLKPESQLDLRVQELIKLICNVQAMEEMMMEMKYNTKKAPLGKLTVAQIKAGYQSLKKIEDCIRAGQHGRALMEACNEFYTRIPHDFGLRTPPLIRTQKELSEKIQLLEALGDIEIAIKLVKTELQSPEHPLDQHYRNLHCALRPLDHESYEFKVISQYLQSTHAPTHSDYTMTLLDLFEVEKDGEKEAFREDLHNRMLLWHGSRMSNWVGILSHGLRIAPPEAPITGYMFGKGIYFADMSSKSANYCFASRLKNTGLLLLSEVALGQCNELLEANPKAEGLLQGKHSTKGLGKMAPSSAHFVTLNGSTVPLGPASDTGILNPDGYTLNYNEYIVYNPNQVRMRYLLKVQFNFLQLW
Assay: PARP2 probe displacement HTRF assay
Assay type: binding
Details: binned Kd, PARP2 probe displacement HTRF

Solved entries (count: 2):
>  <Molecule>
CNC(=O)c1ccc(N2CCC(N3CCCC(c4nc5ccc(F)cc5c(=O)[nH]4)C3)CC2)cn1 (single isomer, unassigned) [Compound 78b]

>  <Kd>
0.1 to 1 µM

$$$$
>  <Molecule>
CNC(=O)c1ccc(N2CCC(CN3CCC(c4nc5c(Cl)cccc5c(=O)[nH]4)CC3)CC2)cn1 [Compound 40]

>  <Kd>
0.1 to 1 µM

$$$$

// query Dear colleague, I am looking for the recorded Kd of the following molecule: CNC(=O)c1ccc(N2CCC(N3CC(c4nc5ccccc5c(=O)[nH]4)C3)CC2)cn1 [Compound 27]
// result 1 to 10 µM

// query And for CCc1ccc(C2CCN(C3CCN(c4ccc(C(=O)NC)nc4F)CC3)C2)[nH]c1=O (single isomer, unassigned) [Compound 151a] ?
// result 0.1 to 1 µM

###

Molecular target: UniProt P09874
Test: PARP1 biochemical DELFIA assay (auto-PARylation)
Set-up: recombinant full length human N-terminally FLAG-tagged PARP1
Details: binned IC50, biochemical auto-PARylation assay
pIC50: −log10 of the molar value.
Quantity Name: pIC50

The following molecules have reported results that may help.
>  <Molecule>
CCCc1ccc(C2CCN(C3CCN(c4ccc(C(=O)NC)nc4)CC3)C2)[nH]c1=O (single isomer, unassigned) [Compound 261b]

>  <Study System>
UniProt P09874

>  <pIC50>
> 8.00

$$$$
>  <Molecule>
O=C(NC1CC1)c1ncc(N2CCC(N3CC4(c5nc6ccc(F)cc6c(=O)[nH]5)CC3C4)CC2)cc1F [Compound 411]

>  <Study System>
UniProt P09874

>  <pIC50>
> 8.00

$$$$
>  <Molecule>
CNC(=O)c1ccc(N2CCC(N3CCC(c4cc5ccc(F)cc5c(=O)[nH]4)C3)CC2)c(Cl)n1 (single isomer, unassigned) [Compound 223a]

>  <Study System>
UniProt P09874

>  <pIC50>
> 8.00

$$$$

// query Data request, read-out pIC50, for CCc1ccc(C2CCN(C3CCN(c4ccc(C(=O)NC)nc4Cl)CC3)C2)[nH]c1=O (single isomer, unassigned) [Compound 239a]
// result > 8.00

// query Can you handle CNC(=O)c1ccc(N2CCC(N3CCC(c4nc5[nH]nc(C(F)(F)F)c5c(=O)[nH]4)C3)CC2)c(F)n1 (single isomer, unassigned) [Compound 267a] next?
// result 7.00 to 8.00

// query Try the molecule CCc1ccc(C2CCN(C3CCN(c4ccc(C(=O)NC)nc4Cl)CC3)C2)[nH]c1=O (single isomer, unassigned) [Compound 239b]
// result > 8.00

###

Each entry below lists one item and its recorded pKd value.
Biological target: full length N-terminally FLAG-tagged PARP1 (Homo sapiens, UniProt P09874)
Sequence (P09874 whole entry): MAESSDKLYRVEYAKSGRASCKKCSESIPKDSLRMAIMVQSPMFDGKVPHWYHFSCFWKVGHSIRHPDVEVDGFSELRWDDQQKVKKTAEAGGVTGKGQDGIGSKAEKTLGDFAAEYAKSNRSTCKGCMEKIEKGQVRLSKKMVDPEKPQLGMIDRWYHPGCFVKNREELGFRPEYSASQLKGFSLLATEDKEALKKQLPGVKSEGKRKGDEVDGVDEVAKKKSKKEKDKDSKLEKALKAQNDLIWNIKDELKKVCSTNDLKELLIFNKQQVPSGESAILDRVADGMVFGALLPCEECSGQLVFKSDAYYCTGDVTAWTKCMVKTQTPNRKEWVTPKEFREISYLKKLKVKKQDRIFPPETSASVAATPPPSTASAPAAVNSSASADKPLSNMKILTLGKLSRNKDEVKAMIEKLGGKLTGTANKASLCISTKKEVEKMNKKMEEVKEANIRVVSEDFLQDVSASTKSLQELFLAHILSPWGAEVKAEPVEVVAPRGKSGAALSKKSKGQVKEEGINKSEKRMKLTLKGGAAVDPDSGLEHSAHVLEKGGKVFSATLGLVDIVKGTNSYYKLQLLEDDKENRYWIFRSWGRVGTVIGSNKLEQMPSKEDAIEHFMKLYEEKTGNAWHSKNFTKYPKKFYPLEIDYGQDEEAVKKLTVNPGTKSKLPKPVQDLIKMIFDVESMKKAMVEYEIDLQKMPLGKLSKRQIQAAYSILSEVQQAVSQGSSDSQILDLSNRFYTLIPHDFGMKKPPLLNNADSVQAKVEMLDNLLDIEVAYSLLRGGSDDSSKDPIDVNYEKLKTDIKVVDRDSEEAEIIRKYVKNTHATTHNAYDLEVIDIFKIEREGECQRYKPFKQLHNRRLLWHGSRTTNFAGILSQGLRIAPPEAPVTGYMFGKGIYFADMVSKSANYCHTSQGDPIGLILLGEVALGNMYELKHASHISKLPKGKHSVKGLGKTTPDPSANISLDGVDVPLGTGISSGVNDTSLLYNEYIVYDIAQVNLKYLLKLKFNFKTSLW
Test: PARP1 probe displacement HTRF assay
Settings: read-out: PARP1 HTRF; binned Kd, PARP1 probe displacement HTRF
pKd: −log10 of the molar value.

>  <Molecule>
CNC(=O)c1ccc(N2CCC(N3CCC(c4nc5c(c(=O)[nH]4)CCCC5)C3)CC2)cn1 (single isomer, unassigned) [Compound 155a]

>  <pKd>
7.00 to 8.00

$$$$
>  <Molecule>
CNC(=O)c1ccc(N2CCC(N3CCCC(c4nc5ncccc5c(=O)[nH]4)C3)CC2)cn1 (single isomer, unassigned) [Compound 98b]

>  <pKd>
6.00 to 7.00

$$$$
>  <Molecule>
CNC(=O)c1ccc(N2CCC(N3CCC(c4nc5cnccc5c(=O)[nH]4)C3)CC2)cn1 (single isomer, unassigned) [Compound 84a]

>  <pKd>
5.00 to 6.00

$$$$
>  <Molecule>
NC(=O)c1ccc(N2CCC(N3CCCC(c4nc5ccccc5c(=O)[nH]4)C3)CC2)cn1 (single isomer, unassigned) [Compound 109b]

>  <pKd>
6.00 to 7.00

$$$$

// query Could you tell me which pKd is on file for CNC(=O)c1ccc(N2CCC(N3CCC(c4cc5ccc(F)cc5c(=O)[nH]4)C3)CC2)cn1 (single isomer, unassigned) [Compound 154b] ?
// result > 8.00

// query Do the same for CNC(=O)c1ccc(N2CCC(N3CCC(c4ccc(OC)c(=O)[nH]4)C3)CC2)cn1 (single isomer, unassigned) [Compound 148b] please
// result 5.00 to 6.00

###

Molecular target: N-terminally FLAG-tagged PARP2 (amino acids 1-583) (Homo sapiens, UniProt Q9UGN5)
Construct: N-terminally FLAG-tagged PARP2 (amino acids 1-583)
Test: PARP2 probe displacement HTRF assay
Format: binding
Settings: binned Kd, probe displacement HTRF
Protocol: Data analysis was performed identical as for PARP1.
pKd: −log10 of the molar value.
Recorded pKd values for a group of molecules are listed next.

>  <Molecule>
CNC(=O)c1ccc(N2CCC(N3CCC(c4nc5c(c(=O)[nH]4)NCCN5)C3)CC2)cn1 (racemic)

>  <pKd>
< 5.00

$$$$
>  <Molecule>
CCc1ccc(C2CCN(C3CCN(c4cnc(C(=O)NC5CC5)c(F)c4)CC3)C2)[nH]c1=O (single isomer, unassigned) [Compound 408a]

>  <pKd>
6.00 to 7.00

$$$$

Let us examine a further case.
// query I am curious: what pKd value has been reported for CNC(=O)c1ccc(N2CCC(N3CCCC(O)(c4nc5ccccc5c(=O)[nH]4)C3)CC2)cn1 (single isomer, unassigned) [Compound 327b] ?
// result < 5.00
